Target: furin, P09958;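 note: purified furin at 1:10 enzyme:substrate in 50 mM HEPES pH 7.5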
Sequence (P09958 whole entry): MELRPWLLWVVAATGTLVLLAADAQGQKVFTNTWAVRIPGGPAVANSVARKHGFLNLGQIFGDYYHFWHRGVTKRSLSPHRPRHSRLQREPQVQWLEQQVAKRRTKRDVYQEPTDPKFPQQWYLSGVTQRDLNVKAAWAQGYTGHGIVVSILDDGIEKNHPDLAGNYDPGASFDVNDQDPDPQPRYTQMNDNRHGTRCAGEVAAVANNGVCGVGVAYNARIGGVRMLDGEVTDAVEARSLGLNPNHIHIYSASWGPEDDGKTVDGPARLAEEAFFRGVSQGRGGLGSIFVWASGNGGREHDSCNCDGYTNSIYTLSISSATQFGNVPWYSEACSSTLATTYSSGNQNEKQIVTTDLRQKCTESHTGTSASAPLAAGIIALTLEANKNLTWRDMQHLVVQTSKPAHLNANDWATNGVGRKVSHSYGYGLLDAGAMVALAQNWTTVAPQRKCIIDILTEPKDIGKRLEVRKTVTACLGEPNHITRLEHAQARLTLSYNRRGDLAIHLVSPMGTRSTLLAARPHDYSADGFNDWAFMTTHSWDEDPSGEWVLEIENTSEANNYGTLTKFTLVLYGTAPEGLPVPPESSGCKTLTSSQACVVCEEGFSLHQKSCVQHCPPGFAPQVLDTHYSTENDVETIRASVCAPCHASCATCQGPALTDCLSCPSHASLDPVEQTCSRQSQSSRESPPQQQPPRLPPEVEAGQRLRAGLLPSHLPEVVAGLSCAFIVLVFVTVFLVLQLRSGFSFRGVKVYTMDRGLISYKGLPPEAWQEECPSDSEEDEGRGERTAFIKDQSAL
Experiment: furin cleavage Z-score vs untreated control; higher = more cleavage, active = 3.5 or more, inactive = 1 or less, 8 variable residues between constant flanks
Conditions: 15 min
Some of the results follow. The hit rate among all sequences tested is not known here.
value.type: furin cleavage Z-score

# input What value of furin cleavage Z-score has been recorded for this entry: CARQKRGWMWAGNASASA [FS-2169]
# output 2.65

# input Another sequence: CARSKRSWMWAGNASASA [FS-2459]
# output 2.1

# input Another sequence: CAWRVSAEEYAGNASASA [HC1202]
# output -1.63 (inactive)

# input Another sequence: CAIFRAAVCTAGNASASA [HC750]
# output -0.718 (inactive)

# input Another sequence: CARQKKGVVPAGNASASA [FS-2749]
# output -0.837 (inactive)

# input Another sequence: CADCMEECSQAGNASASA [HC1820]
# output 0.0434 (inactive)

# input Another sequence: CAMEECQQHLAGNASASA [HC39]
# output 0.787 (inactive)

# input Another sequence: CATTPCSWSWAGNASASA [HC1888]
# output -1.57 (inactive)
